Kindly state viability, T/C for each of the entries shown.
Test system: T-47D spheroids with HUVEC/MSC, viability
PROCEDURE SUMMARY: Anticancer human tumor T-47D cell line growth inhibition [PI3K];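 also: spheroids exposed to agents for seven days before reading; percent of DMSO vehicle control luminescence so 100% = untreated growth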
ASSAY SETUP: second compound 0.01 µM; first compound 10 µM; active compounds read low
Entry rule: numbers only, all in %.

Given item Cn1nccc1Nc1nccc(-c2ccn(C(CO)c3ccc(Cl)c(F)c3)c(=O)c2)n1 (stereo unspecified) + COc1c(OCCCN2CCOCC2)ccc2c3n(c(=NC(=O)c4cnc(N)nc4)nc12)CCN3 , the value recorded as its viability, T/C is 86.4

Entry Cn1ncc(Cl)c1-c1cc(C(=O)NC(CN)Cc2cccc(F)c2)sc1Cl (stereo unspecified) + CC(Nc1ccc2c(c1)OCCn1cc(N3C(=O)OCC3C(F)F)nc1-2)C(N)=O ; viability, T/C = 87.9

Lab book: viability, T/C of Cn1ncc(Cl)c1-c1cc(C(=O)NC(CN)Cc2cccc(F)c2)sc1Cl (stereo unspecified) + COc1c(OCCCN2CCOCC2)ccc2c3n(c(=NC(=O)c4cnc(N)nc4)nc12)CCN3 noted as 77.7

Notebook: CC(C)NCC(C(=O)N1CCN(c2ncnc3c2C(C)CC3O)CC1)c1ccc(Cl)cc1 (stereo unspecified) + COc1c(OCCCN2CCOCC2)ccc2c3n(c(=NC(=O)c4cnc(N)nc4)nc12)CCN3 , viability, T/C read as 38.8

Documented viability, T/C of CC(Cn1ccc(-c2ccc(C#N)c(Cl)c2)n1)NC(=O)c1cc(C(C)O)[nH]n1 (stereo unspecified) + COc1c(OCCCN2CCOCC2)ccc2c3n(c(=NC(=O)c4cnc(N)nc4)nc12)CCN3 : 59.5

Given item CCCS(=O)(=O)Nc1ccc(F)c(C(=O)c2c[nH]c3ncc(-c4ccc(Cl)cc4)cc23)c1F + COc1c(OCCCN2CCOCC2)ccc2c3n(c(=NC(=O)c4cnc(N)nc4)nc12)CCN3 , the value recorded as its viability, T/C is 51.3

viability, T/C in this record for CC(C)NCC(C(=O)N1CCN(c2ncnc3c2C(C)CC3O)CC1)c1ccc(Cl)cc1 (stereo unspecified) + CC(Nc1ccc2c(c1)OCCn1cc(N3C(=O)OCC3C(F)F)nc1-2)C(N)=O : 59

Sample C#Cc1c(F)ccc2cc(O)cc(-c3ncc4c(N5CC6CCC(C5)N6)nc(OCC56CCCN5CC(F)C6)nc4c3F)c12 (stereo unspecified) + COc1c(OCCCN2CCOCC2)ccc2c3n(c(=NC(=O)c4cnc(N)nc4)nc12)CCN3 ; viability, T/C observed: 111

// sample CNC(=O)c1ccc(N2C(=S)N(c3ccc(C#N)c(C(F)(F)F)c3)C(=O)C2(C)C)cc1F + CC(Nc1ccc2c(c1)OCCn1cc(N3C(=O)OCC3C(F)F)nc1-2)C(N)=O , its viability, T/C was 95.5

C#Cc1c(F)ccc2cc(O)cc(-c3ncc4c(N5CC6CCC(C5)N6)nc(OCC56CCCN5CC(F)C6)nc4c3F)c12 (stereo unspecified) + CC(Nc1ccc2c(c1)OCCn1cc(N3C(=O)OCC3C(F)F)nc1-2)C(N)=O yielded viability, T/C of 92.9

So for CC1(C)CCC(Nc2ncc(C(F)(F)F)c(-c3c[nH]c4c(P(C)(C)=O)c(C#N)ccc34)n2)CN1 (stereo unspecified) + COc1c(OCCCN2CCOCC2)ccc2c3n(c(=NC(=O)c4cnc(N)nc4)nc12)CCN3 , the logged viability, T/C turned out to be 46

Data provenance is PubChem BioAssay AID1963959.
